Molecular target: human LPA1 (Homo sapiens)
Construct: expressed in transfected cells; host or cells: Chinese hamster ovary (CHO) cells
Sequence (Q92633 whole entry): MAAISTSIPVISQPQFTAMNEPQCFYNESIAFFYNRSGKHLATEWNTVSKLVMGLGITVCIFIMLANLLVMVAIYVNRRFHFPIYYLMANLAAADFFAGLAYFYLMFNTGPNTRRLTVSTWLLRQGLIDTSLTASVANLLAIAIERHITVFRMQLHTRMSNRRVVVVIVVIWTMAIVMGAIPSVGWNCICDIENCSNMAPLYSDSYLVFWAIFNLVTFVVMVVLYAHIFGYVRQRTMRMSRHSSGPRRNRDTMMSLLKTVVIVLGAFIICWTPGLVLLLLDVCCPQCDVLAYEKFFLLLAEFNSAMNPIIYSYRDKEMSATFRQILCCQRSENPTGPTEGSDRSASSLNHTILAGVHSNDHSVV
Test: LPA1 functional antagonist assay (LPA-induced calcium flux in CHO cells overexpressing human LPA1)
Assay type: cell-based
Conditions: inhibition of calcium flux induced by 10 nM LPA, CHO cells overexpressing human LPA1; read-out: hLPA1 IC50
Kindly supply the reported IC50 values for the records listed here.
Respond numerically; units are nM and should not be typed.

Task item: Checklist item: IC50 tested on human LPA1 (Homo sapiens), entry Cc1nc(-c2nnn(C)c2CNc2nnn(-c3ccc(Cl)cc3)n2)ccc1O[C@H]1CCC[C@H](C(=O)O)C1 [Example 384] , value?
Reply: 41

Task item: Return IC50 measured with human LPA1 (Homo sapiens) given this compound: Cc1nc(-c2nnn(C)c2CNc2noc([C@H]3C[C@](C)(F)C3)n2)ccc1O[C@H]1CCC[C@H](C(=O)O)C1 [Example 192]
Reply: 52

Task item: Record CCCc1nnn(Cc2c(-c3ccc(O[C@H]4CCC[C@H](C(=O)O)C4)cn3)nnn2C)n1 [Example 252] : what is its IC50 with human LPA1 (Homo sapiens)?
Reply: 531

Task item: Which IC50 is reported with human LPA1 (Homo sapiens) for this entry: COCCc1nc(NCc2c(-c3ccc(O[C@H]4CCC[C@H](C(=O)O)C4)c(C)n3)nnn2C)no1 [Example 172] ?
Reply: 120

Task item: Query for human LPA1 (Homo sapiens): what IC50 does the record show for Cc1nc(-c2nnn(C)c2CNc2nc(C)n(-c3ccccc3)n2)ccc1O[C@H]1CCC[C@H](C(=O)O)C1 [Example 37] ?
Reply: 46

Task item: What measured IC50 is associated with Cc1nc(-c2nnn(C)c2CNc2noc([C@H]3C[C@@](C)(F)C3)n2)ccc1O[C@H]1CCC[C@H](C(=O)O)C1 [Example 191] on human LPA1 (Homo sapiens)?
Reply: 112

Task item: // lookup IC50 | system=human LPA1 (Homo sapiens) | key= Cc1nc(-c2nnn(C)c2COc2nc(C3CC3)ns2)ccc1O[C@H]1CCC[C@H](C(=O)O)C1 [Example 116]
Reply: 405

Task item: Checklist item: IC50 tested on human LPA1 (Homo sapiens), entry Cc1nc(-c2nnn(C)c2CNc2nc(-c3ccccc3)cs2)ccc1O[C@H]1CCC[C@H](C(=O)O)C1 [Example 14] , value?
Reply: 130

Task item: Write down the reported IC50 of Cc1nc(-c2nnn(C)c2Cn2ncnc2-c2ccccc2)ccc1O[C@H]1CCC[C@H](C(=O)O)C1 [Example 207] , test system: human LPA1 (Homo sapiens).
Reply: 213

Task item: So what IC50 did Cc1nc(-c2nnn(C)c2Cn2cc(COC(C)(C)C)nn2)ccc1O[C@H]1CCC[C@H](C(=O)O)C1 [Example 88] get with human LPA1 (Homo sapiens)?
Reply: 2930

Task item: Requested read-out IC50, target or system human LPA1 (Homo sapiens), entry CCCC(C)(C)c1nc(NCc2c(-c3ccc(O[C@H]4CCC[C@H](C(=O)O)C4)c(C)n3)nnn2C)no1 [Example 197]
Reply: 42

Task item: Value wanted: IC50 (human LPA1 (Homo sapiens)) of entry Cc1nc(-c2nnn(C)c2CNc2noc(Cc3ccccc3)n2)ccc1O[C@H]1CCC[C@H](C(=O)O)C1 [Example 67]
Reply: 14

Task item: Given the entry Cc1c(O[C@H]2CCC[C@H](C(=O)O)C2)ccc(-c2nnn(C)c2Cn2nnc(OCC3CC3)n2)[n+]1[O-] [Example 349] , what IC50 was observed with human LPA1 (Homo sapiens)?
Reply: 304

Task item: Short answer please: IC50, human LPA1 (Homo sapiens), entry Cc1nc(-c2nnn(C)c2Cn2nnnc2CC2CCC2)ccc1O[C@H]1CCC[C@H](C(=O)O)C1 [Example 356]
Reply: 146

Task item: Entry Cc1nc(-c2nnn(C)c2Cn2nnc(OCC3CCC3)n2)ccc1O[C@H]1CCC[C@H](C(=O)O)C1 [Example 332] , system human LPA1 (Homo sapiens): what IC50 was measured?
Reply: 30
